Each recorded value in this set is attributed to PubChem BioAssay (NCI).

# Test system: OVCAR-5 ovarian
# measurement-description: NCI-60 one-dose screen, 48 h (100 = growth as untreated, 0 = no growth, -100 = all killed)
# recorded-conditions: 10 µM unless noted
This is part of a sample that, as a whole, favours compounds with a hit. Of some 83,000 tested, about 20% had one in any assay.
Rule: growth below 90% gives YES. Equal to or above 90% gives NO.

Example results:
>  <compound>
O=C(OCc1nc2nc(Cl)nc(N3CCOCC3)c2[nH]1)n1ccnc1

>  <tested-target>
OVCAR-5 ovarian

>  <group-label>
YES

$$$$
>  <compound>
c1ccc(C2CC(c3cccc(Nc4ccncc4)c3)=NN2c2ccccc2)cc1 (stereo not given)

>  <tested-target>
OVCAR-5 ovarian

>  <group-label>
YES

$$$$
>  <compound>
O=C(Nc1nc(-c2ccc(Br)cc2)cs1)c1cc(-c2ccc(Br)cc2)nc2ccc(Cl)cc12

>  <tested-target>
OVCAR-5 ovarian

>  <group-label>
NO

$$$$
>  <compound>
O=C(CN1CCOCC1)Nc1ccc2ncnc(Nc3ccc(Oc4cccc(C(F)(F)F)c4)c(Cl)c3)c2c1

>  <tested-target>
OVCAR-5 ovarian

>  <group-label>
YES

$$$$

Moving on to the next compound.
Exercise: Please let me know if `CC(=O)Nc1ccc(S(=O)(=O)NC2CCCCC2)cc1` shows growth below 90%.
Key: NO

###

# System: NCI/ADR-RES ovarian
# measurement-description: NCI-60 one-dose screen, 48 h (100 = growth as untreated, 0 = no growth, -100 = all killed)
# recorded-conditions: 10 µM unless noted
This is part of a sample that, as a whole, favours compounds with a hit. Of some 83,000 tested, about 20% had one in any assay.
Please mark fulfilled if the recorded growth is equal to or greater than 90%, and not fulfilled if it falls below.

Example results:
>  <compound>
Cc1[nH]c(C(=O)Nc2ccccc2OCc2cccc(C(=O)NCCN)c2)c(Cl)c1Cl

>  <group-label>
fulfilled

$$$$
>  <compound>
CC1(c2ccccc2)NC(=O)N(CC(=O)Nc2cccc(I)c2)C1=O (stereo not given)

>  <group-label>
fulfilled

$$$$
>  <compound>
CCN1C(=O)N(CC)C2NC(SC)=NC21 (stereo not given)

>  <group-label>
fulfilled

$$$$

Exercise: Determine whether measured growth meets or exceeds 90% for `C=C(C)[C@@H]1CC[C@]2(C=O)CC[C@]3(C)[C@H](CC[C@@H]4[C@@]5(C)CCCNC(C)(C)[C@@H]5CC[C@]43C)[C@@H]12`
Key: not fulfilled

###

# Test system: COLO 205 colon
# measurement-description: NCI-60 one-dose screen, 48 h (100 = growth as untreated, 0 = no growth, -100 = all killed)
# recorded-conditions: 10 µM unless noted
Compounds without any hit were thinned out: in the full panel of roughly 83,000, 20% have a hit.
reported-endpoint: growth (%)
Your answer should be a plain number; it is taken to be in %.

Worked examples follow.
>  <compound>
COc1ccc(CC(C)=C(c2ccc(OCCN(C)C)cc2)c2ccc(OCCN(C)C)cc2)cc1

>  <units>
%

>  <growth>
67.3

$$$$
>  <compound>
Cc1ccccc1C(c1ccccc1)c1ccccc1C

>  <units>
%

>  <growth>
105

$$$$

Exercise: Suppose we examine the compound `CCc1c(Nc2ccc(C)cc2)[nH]c(N)nc1=S` ; what growth value has been reported?
Key: 109

Exercise: How about this compound: `COc1c(Cl)cc(Cl)c2ccc(C=C3C(=O)NC(=S)NC3=O)nc12`
Key: 113

Exercise: How about this compound: `O=c1[nH]c(=O)[nH]c(=S)[nH]1`
Key: 103

Exercise: How about this compound: CC(C)(O)C1CCCN1C(=O)c1ccccc1I (stereo unspecified)
Key: 105

Exercise: How about this compound: `Clc1ccc2c(c1)c(-c1ccccc1)nc1nncn12`
Key: 115

Exercise: How about this compound: NC(=O)c1ncn(C2OC(CO)C(O)C2O)n1 (stereo unspecified)
Key: 94.4

Exercise: How about this compound: `Nc1c(Cl)cc([N+](=O)[O-])cc1Br`
Key: 118

Exercise: How about this compound: `COc1cc(/C=N/NC(=O)c2ccccc2Nc2cccc(C(F)(F)F)c2)ccc1O`
Key: 106

Exercise: How about this compound: COc1ccc(C2CC(n3nnnc3-c3ccccc3)=NN2)cc1 (stereo unspecified)
Key: 91.8

Exercise: How about this compound: `COc1cnccc1-c1nc2ccc3[nH]ncc3c2c2c1CCCC2`
Key: 55.3

Exercise: How about this compound: `CCNC(=O)c1[nH]cc(-c2ccc(OC)cc2)c1-c1cc(OC)c(OC)c(OC)c1`
Key: 32.5

###

# Tested on: PC-3 prostate
# measurement-description: NCI-60 one-dose screen, 48 h
# recorded-conditions: 10 µM unless noted
This is part of a sample that, as a whole, favours compounds with a hit. Of some 83,000 tested, about 20% had one in any assay. The source made the active and inactive calls. The calls were made as follows: active = growth percent below 10; inactive = the rest.
Give one outcome, nothing more. List: active, inactive

Example results:
>  <compound>
COc1ccc(-c2cnc(N)nc2-c2ccc(OC)cc2O)cc1

>  <group-label>
inactive

$$$$
>  <compound>
Cc1[nH]c(C(=O)Nc2ccccc2OCc2cccc(C(=O)NCCN)c2)c(Cl)c1Cl

>  <group-label>
inactive

$$$$
>  <compound>
C/C(=C(/c1ccccc1)c1ccc(OCC(O)CN2CCOCC2)cc1)c1ccccc1 (stereo not given)

>  <group-label>
inactive

$$$$
>  <compound>
FC(F)(F)Oc1cccc(-c2cc(NCCCCCCNc3cc(-c4cccc(OC(F)(F)F)c4)nc4ccc(N5CCCC5)cc34)c3cc(N4CCCC4)ccc3n2)c1

>  <group-label>
active

$$$$

Exercise: Assay result, entry `N#Cc1c(NC(=O)c2cccc(Br)c2)sc2c1CCCC2` — outcome?
Key: inactive

Exercise: How about this compound: `CCSc1ccc2c(c1)N(CCCN1CCN(C)CC1)c1ccccc1S2`
Key: inactive

###

# Tested on: SK-MEL-2 melanoma
# measurement-description: NCI-60 one-dose screen, 48 h (100 = growth as untreated, 0 = no growth, -100 = all killed)
# recorded-conditions: 10 µM unless noted
About 83,000 compounds went through this panel and 20% of them were active in at least one assay; those are over-represented in the sample as a whole.
We begin with a simple list: items and their reported growth.
Your answer should be a plain number; it is taken to be in %.

>  <compound>
CC(=O)OCC(=O)C1(O)C(C)CC2C3C=C(C)C4=Cc5c(cnn5-c5ccccc5)CC4(C)C3C(O)CC21C (stereo not given)

>  <growth (%)>
25.1

$$$$
>  <compound>
CCNC(=O)c1[nH]cc(-c2ccc(OC)cc2)c1-c1cc(OC)cc(OC)c1

>  <growth (%)>
98.6

$$$$
>  <compound>
COc1ccc(C(=O)/C=C/c2cn(Cc3ccc(Cl)cc3)c3ccccc23)cc1

>  <growth (%)>
74.6

$$$$
>  <compound>
COc1ccc(C2=NN(C(C)=O)C(c3cn(Cc4ccc(Cl)cc4)c4ccccc34)C2)cc1 (stereo not given)

>  <growth (%)>
91.1

$$$$

Next up:
Exercise: Suppose we examine the compound `COc1ccc(C(=O)c2cc3c(N)c(C(=O)Nc4cccc(OC)c4)sc3nc2C)cc1` ; what growth value has been reported?
Key: 27.9

###

# Tested on: MDA-MB-435 melanoma
# measurement-description: NCI-60 one-dose screen, 48 h
# recorded-conditions: 10 µM unless noted
The panel holds about 83,000 compounds, 20% with a hit somewhere; the sample as a whole holds those more often. The source made the active and inactive calls. How the source made its calls: active means growth percent below 10; inactive means the rest.
Give one outcome, nothing more. List: TRUE = active, FALSE = inactive

Example results:
>  <compound>
CCCc1cc2c(cc1Br)OCO2

>  <group-label>
FALSE

$$$$
>  <compound>
C=C(C)[C@@H]1CC[C@]2(C(=O)NCCCN(CCC#N)CCC#N)CC[C@]3(C)[C@H](CC[C@@H]4[C@@]5(C)CCC(=O)C(C)(C)[C@@H]5CC[C@]43C)[C@@H]12

>  <group-label>
FALSE

$$$$
>  <compound>
COc1ccc(-c2ncc(-c3ccccc3)[nH]2)cc1OC

>  <group-label>
FALSE

$$$$
>  <compound>
COc1ccc(C(=O)c2cc3c(N)c(C(=O)Nc4cccc(Cl)c4C)sc3nc2C)cc1

>  <group-label>
TRUE

$$$$

Moving on to the next compound.
Exercise: Assay result, entry `CS(=O)(=O)OCCN(CCOS(C)(=O)=O)c1ccc(/C=N/Nc2ccc([N+](=O)[O-])cc2[N+](=O)[O-])cc1` — outcome?
Key: FALSE

###

# Tested on: SF-539 CNS
# measurement-description: NCI-60 one-dose screen, 48 h (100 = growth as untreated, 0 = no growth, -100 = all killed)
# recorded-conditions: 10 µM unless noted
Compounds without any hit were thinned out: in the full panel of roughly 83,000, 20% have a hit.
Please mark Criterion met if the recorded growth is equal to or greater than 70%, and Criterion not met if it falls below.

Example results:
>  <compound>
COc1c(Cl)cc(Cl)c2ccc(C=C3C(=O)NC(=S)NC3=O)nc12

>  <group-label>
Criterion met

$$$$
>  <compound>
CC(=O)N1c2ccccc2NC2=C(C(=O)N(Cc3ccccc3)C2(C)C)C1c1ccco1 (centres undefined)

>  <group-label>
Criterion not met

$$$$
>  <compound>
COc1ccc(NS(=O)(=O)c2ccc(C)cc2)c([N+](=O)[O-])c1

>  <group-label>
Criterion met

$$$$
>  <compound>
COc1cc(CNC(=O)CCCCC[P+](c2ccccc2)(c2ccccc2)c2ccccc2)c(OC)c2c1OCO2

>  <group-label>
Criterion met

$$$$

Exercise: Determine whether measured growth meets or exceeds 70% for `Cc1cccc(Oc2ccc(Nc3ncnc4ccc(NC(=O)CN(C)C)cc34)cc2Cl)c1`
Key: Criterion not met

Exercise: How about this compound: `COc1ccc(NC(=O)c2sc3nc(C)c(C(=O)c4ccc(OC)cc4)cc3c2N)cc1`
Key: Criterion not met

Exercise: How about this compound: `O=C(Nc1ccc2cc3ccc(NC(=O)N4CCCCCC4)cc3nc2c1)N1CCCCCC1`
Key: Criterion not met

Exercise: How about this compound: `COc1ccc(C(=O)c2cc3c(N)c(C(=O)Nc4cccc5ccccc45)sc3nc2C)cc1`
Key: Criterion not met
